Entries and their measured melting point follow.

Known melting point results, listed for orientation:
{"columns": ["COMPOUND", "melting point"],
 "data": [
  ["O=C1NC(=O)C(Cc2ccc(C(=O)/C=C/c3ccccc3)cc2)S1 (stereo not given)", "147 to 149 °C"],
  ["O=C(O)C(Cc1n[nH]c2ccccc12)NC(=O)C(CS)C(F)(F)F (stereo not given)", "218 to 220 °C"],
  ["CC(C)Cn1c(CN2CCCS2(=O)=O)nc2c(N)nc3ccccc3c21", "230 to 232 °C"]
]}

What value of measured melting point is listed for COCc1ccc(-c2ccc3c(c2)C=C(C(=O)Nc2ccc(CN(C)C4CCOCC4)cc2)CCS3(=O)=O)cc1 ?
227 to 229 °C

What value of measured melting point is listed for CC(C)(C)NC1CCCCC1O (stereo not given) ?
42 to 44 °C

----------
ATTRIBUTE_MEASURED: melting point

Known melting point results, listed for orientation:
{"columns": ["COMPOUND", "ATTRIBUTE_MEASURED", "RESULT"],
 "data": [
  ["O=C1CCCc2nc(C#Cc3ccccc3)ccc21", "melting point", "121 to 122 °C"],
  ["NS(=O)(=O)c1ccc(C2CCCC2)cc1", "melting point", "158 °C"]
]}

What value of measured melting point is listed for Cc1nc(-c2ccccc2)cc(-c2cccc([N+](=O)[O-])c2)c1C(=O)NCCN1CCOCC1 ?
141 to 142 °C

What value of measured melting point is listed for CCN(CC)c1ccc(NC(=O)N(C[C@H]2CC[C@H](CN(C(=O)Nc3ccc(N(CC)CC)cc3)C3CCCCCC3)CC2)C2CCCCCC2)cc1 ?
170 to 175 °C

What value of measured melting point is listed for Cc1cc(C)c2ncc(C(=O)O)c(-c3ccccc3Cl)c2c1 ?
234 to 235 °C

What value of measured melting point is listed for O=C(CCc1ccccc1)NC(C(=O)Nc1n[nH]c(=S)s1)c1ccccc1 (centres undefined) ?
196 to 198 °C

What value of measured melting point is listed for NC(=O)c1ccc(Sc2ccc(Cl)cc2)c(Cl)c1 ?
176 to 177 °C

What value of measured melting point is listed for CC(=O)Oc1c(C)c(C)c2c(c1C)CCC(C)(COc1ccc(N)cc1)O2 (centres undefined) ?
138 to 140 °C

What value of measured melting point is listed for c1ccc(P(c2ccccc2)c2cccc3c2-c2c(cccc2P(c2ccccc2)c2ccccc2)OCCCO3)cc1 ?
85 °C

----------
ATTRIBUTE_MEASURED: melting point

Known melting point results, listed for orientation:
{"columns": ["COMPOUND", "melting point"],
 "data": [
  ["CSCc1cc(=O)c2ccccc2o1", "77 to 79 °C"],
  ["COCCOCCN1C(=O)C2(c3cc4c(cc3OC2OC)OCCO4)c2c(OC)cccc21 (stereo not given)", "109 to 110 °C"]
]}

What value of measured melting point is listed for CCCNC(=O)C1CC(=O)N(c2cc(C(F)(F)F)cc(C(F)(F)F)c2)C1 (stereo not given) ?
152 to 154 °C

What value of measured melting point is listed for CC1=C(C)C(=O)N(CC(=O)N2c3ccccc3N(Cc3ccccc3)C(=O)[C@H]3CCC[C@H]32)C1=O (relative stereo) ?
196 to 200 °C

What value of measured melting point is listed for O=C(O)Cc1ccc(OCc2ccccc2)c(OCc2ccccc2)c1 ?
112 to 113 °C

What value of measured melting point is listed for COc1cc(Nc2c(C#N)cnc3cc(OS(=O)(=O)C(F)(F)F)c(OC)cc23)c(Cl)cc1Cl ?
220 to 223 °C

What value of measured melting point is listed for CC(=O)Oc1ccc(NCc2c(F)c(F)c(C(F)(F)F)c(F)c2F)cc1C(=O)O ?
185 to 187 °C

What value of measured melting point is listed for CCOC(=O)COc1cccc2c1OCC2=O ?
89 to 90 °C

What value of measured melting point is listed for COc1ccc(S(=O)(=O)C2(C(=O)NO)CCN(Cc3ccc(F)cc3)CC2)cc1 ?
176 to 178 °C

What value of measured melting point is listed for Cc1ccc2c(c1)c1c(n2C(=O)c2ccccc2)CCC(C(=O)O)C1 (stereo not given) ?
200 to 202 °C
